Tested on: H460 lung cancer cells
experimentSummary: MTT in vitro cytotoxicity assay, H460
Assay type: cell-based
conditionLabel: 72 h drug exposure, n = 3, read-out: GI50 ± SEM, H460
Reported GI50 is given for each of the following molecules.
Write down the value, and be sure its unit follows.

Take a look at these entries with their results.
COc1cc[n+]2c3c1ccc1c(OC)cc[n+](c13)[Pt-2]21([OH])([O]C(=O)CCCC[C@@H]2SC[C@@H]3NC(=O)N[C@@H]32)[NH2+][C@H]2CCCC[C@@H]2[NH2+]1.O=[N+]([O-])[O-].O=[N+]([O-])[O-] [Complex 3] = 270 nM
Cc1cc2ccc[n+]3c2c2c1ccc[n+]2[Pt-2]31([OH])([O]C(=O)CCCC[C@@H]2SC[C@@H]3NC(=O)N[C@@H]32)[NH2+][C@H]2CCCC[C@@H]2[NH2+]1.O=[N+]([O-])[O-].O=[N+]([O-])[O-] [Complex 4] = 32 nM
O=C1N[C@H]2[C@H](CS[C@H]2CCCCC(=O)[O][Pt-2]23([OH])([NH2+][C@H]4CCCC[C@@H]4[NH2+]2)[n+]2cccc4ccc5ccc[n+]3c5c42)N1.O=[N+]([O-])[O-].O=[N+]([O-])[O-] [Complex 1] = 300 nM

Please find the next molecule below.
Could you share which GI50 value was measured for Cc1c(C)c2ccc[n+]3c2c2c1ccc[n+]2[Pt-2]31([OH])([O]C(=O)CCCC[C@@H]2SC[C@@H]3NC(=O)N[C@@H]32)[NH2+][C@H]2CCCC[C@@H]2[NH2+]1.O=[N+]([O-])[O-].O=[N+]([O-])[O-] [Complex 2] ?
18 nM
